# Tested Target: human recombinant adrenergic α2A receptor (Homo sapiens, UniProt P08913)
# Construct: expressed in transfected cells; host or cells: insect Sf9 cells
# Sequence (P08913 whole entry): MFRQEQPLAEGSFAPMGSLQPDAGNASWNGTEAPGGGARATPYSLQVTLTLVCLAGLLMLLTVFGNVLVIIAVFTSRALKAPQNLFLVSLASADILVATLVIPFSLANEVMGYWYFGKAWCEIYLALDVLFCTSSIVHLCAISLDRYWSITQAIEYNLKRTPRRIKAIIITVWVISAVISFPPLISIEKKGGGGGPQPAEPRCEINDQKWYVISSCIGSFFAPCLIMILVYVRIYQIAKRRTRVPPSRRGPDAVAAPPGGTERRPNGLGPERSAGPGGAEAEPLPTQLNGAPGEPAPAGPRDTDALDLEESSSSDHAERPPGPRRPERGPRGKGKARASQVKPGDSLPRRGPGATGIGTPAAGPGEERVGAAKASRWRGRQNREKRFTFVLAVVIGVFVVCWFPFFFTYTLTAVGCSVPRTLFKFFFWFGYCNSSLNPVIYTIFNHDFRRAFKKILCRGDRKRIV
# Assay Info: Adrenergic α2A radioligand binding ([3H]MK-912)
# Test Settings: compound at 1 μM; read-out: Inhibition of ligand binding, Adrenergic α2A (percent inhibition of specific binding)
Short version: inhibition at 1 µM at least 80% is Met, less is Not met.

Worked examples, 5 molecules total:
[[record]]
smiles_representation = "COC(=O)c1ccc2c(c1)c1c(n2C#Cc2ccc(F)cc2)CCN(C)C1"
assigned_label = "Met"

[[record]]
smiles_representation = "Cc1ccc2c(c1)c1c(n2C/C(=C/C(=O)O)c2ccc(F)cc2)CCN(C)C1"
assigned_label = "Not met"

[[record]]
smiles_representation = "CCC/C=C(/Cn1c2c(c3cc(Cl)ccc31)CN(C)CC2)c1ccc(F)cc1"
assigned_label = "Met"

[[record]]
smiles_representation = "Cc1ccc2c(c1)c1c(n2CC#Cc2ccccn2)CCN(C)C1"
assigned_label = "Not met"

[[record]]
smiles_representation = "CN1CCc2c(c3cc(Cl)ccc3n2C#Cc2ccc(Cl)cc2)C1"
assigned_label = "Met"


Task item: Could you please find out whether CCOC(=O)/C=C(/Cn1c2c(c3cc(C)ccc31)CN(C)CC2)c1ccc(F)cc1 has inhibition at 1 µM that meets 80% or exceeds it?
Reply: Met

Task item: Could you please find out whether CN1CCc2c(c3cc(Cl)ccc3n2C#Cc2ccc(F)cc2)C1 has inhibition at 1 µM that meets 80% or exceeds it?
Reply: Met

Task item: Could you please find out whether Cc1ccc2c(c1)c1c(n2C#Cc2ccc(Cl)cc2)CCN(C)C1 has inhibition at 1 µM that meets 80% or exceeds it?
Reply: Met
